Source: ChEMBL document CHEMBL4602605

# Test system: Enterococcus faecalis
# experiment.notes: Antimicrobial activity against Enterococcus faecalis ATCC 29212 incubated for 24 hrs by serial dilution method
# Assay type: functional
# assay.context: ATCC 29212, 24 h
value.kind: MIC

Here are 5 molecules together with their reported answers.
CN(C)Cc1cn(-c2cc3c(cc2F)c(=O)c(C(=O)NO)cn3C2CC2)nn1    > 64 µg/mL
CCN(CC)Cc1cn(-c2cc3c(cc2F)c(=O)c(C(=O)NO)cn3C2CC2)nn1    64 µg/mL
CC(C)NCc1cn(-c2cc3c(cc2F)c(=O)c(C(=O)NO)cn3C2CC2)nn1    > 64 µg/mL
CCCN(CCC)Cc1cn(-c2cc3c(cc2F)c(=O)c(C(=O)NO)cn3C2CC2)nn1    64 µg/mL
O=C(NO)c1cn(C2CC2)c2cc(-n3cc(CN4CCOCC4)nn3)c(F)cc2c1=O    > 64 µg/mL

Req: Look up MIC of O=C(NO)c1cn(C2CC2)c2cc(-n3cc(CN4CCCCC4)nn3)c(F)cc2c1=O and report it.
Resp: > 64 µg/mL

* * *

Hi there, I'd appreciate the recorded log10(MIC) for every entry that follows.
# Tested on: Acinetobacter calcoaceticus
# experiment.notes: Antimicrobial activity against Acinetobacter calcoaceticus ATCC 19606
# Format: functional
In our notation, the value equals log10 of MIC in µM.

Here are 5 molecules together with their reported answers.
O=C(O)c1cn([C@@H]2C[C@@H]2F)c2cc(N3CCN(Cn4nc(-c5ccncc5)n(Cc5ccccc5)c4=S)CC3)c(F)cc2c1=O    1.10
COc1cccc(-c2nn(CN3CCN(c4cc5c(cc4F)c(=O)c(C(=O)O)cn5[C@@H]4C[C@@H]4F)CC3)c(=S)n2-c2ccccc2)c1    1.09
O=C(O)c1cn([C@@H]2C[C@@H]2F)c2cc(N3CCN(Cn4nc(-c5ccccn5)n(-c5ccccc5)c4=S)CC3)c(F)cc2c1=O    0.81
COc1ccc(-c2nn(CN3CCN(c4cc5c(cc4F)c(=O)c(C(=O)O)cn5[C@@H]4C[C@@H]4F)CC3)c(=S)n2-c2ccccc2)cc1OC    1.37
Cc1cc(C)cc(-c2nn(CN3CCN(c4cc5c(cc4F)c(=O)c(C(=O)O)cn5[C@@H]4C[C@@H]4F)CC3)c(=S)n2Cc2ccccc2)c1    0.76

Lab note: each molecule below needs its log10(MIC) filled in.
1. O=C(O)c1cn([C@@H]2C[C@@H]2F)c2cc(N3CCN(Cn4nc(-c5cc6ccccc6cn5)n(Cc5ccccc5)c4=S)CC3)c(F)cc2c1=O
2. O=C(O)c1cn([C@@H]2C[C@@H]2F)c2cc(N3CCN(Cn4nc(-c5cccnc5)n(Cc5ccccc5)c4=S)CC3)c(F)cc2c1=O
3. O=C(O)c1cn([C@@H]2C[C@@H]2F)c2cc(N3CCN(Cn4nc(-c5cccnc5)n(-c5ccccc5)c4=S)CC3)c(F)cc2c1=O
4. COc1cc(-c2nn(CN3CCN(c4cc5c(cc4F)c(=O)c(C(=O)O)cn5[C@@H]4C[C@@H]4F)CC3)c(=S)n2-c2ccccc2)cc(OC)c1OC
5. COc1ccccc1-c1nn(CN2CCN(c3cc4c(cc3F)c(=O)c(C(=O)O)cn4[C@@H]3C[C@@H]3F)CC2)c(=S)n1-c1ccccc1

Resp:
1.07
0.80
1.11
0.75
0.79

Lab note: each molecule below needs its log10(MIC) filled in.
1. O=C(O)c1cn([C@@H]2C[C@@H]2F)c2cc(N3CCN(Cn4nc(-c5ccccc5O)n(-c5ccccc5)c4=S)CC3)c(F)cc2c1=O
2. O=C(O)c1cn([C@@H]2C[C@@H]2F)c2cc(N3CCN(Cn4nc(-c5cccc(O)c5)n(-c5ccccc5)c4=S)CC3)c(F)cc2c1=O
3. COc1cc(OC)cc(-c2nn(CN3CCN(c4cc5c(cc4F)c(=O)c(C(=O)O)cn5[C@@H]4C[C@@H]4F)CC3)c(=S)n2-c2ccccc2)c1

Resp:
[1.10, 0.80, 0.17]

Req: GET log10(MIC) where system = Acinetobacter calcoaceticus and item = O=C(O)c1cn([C@@H]2C[C@@H]2F)c2cc(N3CCN(Cn4nc(-c5ccncc5)n(-c5ccccc5)c4=S)CC3)c(F)cc2c1=O
Resp: 1.11

* * *

Hi there, I'd appreciate the recorded MIC for every entry that follows.
# System: Staphylococcus aureus
# experiment.notes: Antimicrobial activity against methicillin-susceptible Staphylococcus aureus clinical isolate incubated for 16 hrs by CLSI based agar dilution method
# Assay type: functional
Give bare numbers, in µg/mL.

Lab note: each compound below needs its MIC filled in.
1. O=C(O)c1cn(C2CC2)c2nc(N3CCN(CC(O)Cn4cc([N+](=O)[O-])nc4Cl)CC3)c(F)cc2c1=O (stereo not drawn)
2. COc1c(N2CCN(C[C@H](O)Cn3cc([N+](=O)[O-])nc3C)C(C)C2)c(F)cc2c(=O)c(C(=O)O)cn(C3CC3)c12 (stereo partly drawn)

Resp:
1: 4; 2: 32

* * *

Hi there, I'd appreciate the recorded MIC for every entry that follows.
# Tested on: Staphylococcus aureus
# experiment.notes: Antimicrobial activity against Staphylococcus aureus ATCC 25923 incubated for 18 hrs by CLSI-based microbroth dilution method
# Assay type: functional
# assay.context: ATCC 25923, 18 h
Answers are plain numbers, in µg/mL.

Here are 4 molecules together with their reported answers.
CCN(CC)c1cc2c(cc1F)c(=O)c(C(=O)O)cn2C1CC1    0.5
CCN(CC)c1cc2c(cc1F)c(=O)c(C(=O)O)cn2CC    4
O=C(O)c1cn(C2CC2)c2cc(N3CCCC3)c(F)cc2c1=O    0.0625
COc1ccc(Cn2cc(C(=O)O)c(=O)c3cc(F)c(N4CCNCC4)cc32)cc1.Cl    64

Req: Look up MIC of CCn1cc(C(=O)O)c(=O)c2cc(F)c(N(C)C)cc21 and report it.
Resp: 0.5

* * *

# System: Bacillus subtilis
# experiment.notes: Antibacterial activity against Bacillus subtilis NCDC 71 by single disk method
# Assay type: functional
value.kind: MIC (µg/mL)
Numbers only, in µg/mL.

Here are 6 molecules together with their reported answers.
COc1c(N2CCN(CC(=O)Nc3nc4c([N+](=O)[O-])cccc4s3)C(C)C2)c(F)cc2c(=O)c(C(=O)O)cn(C3CC3)c12 (configuration not stated)    40
O=C(CN1CCN(c2cc3c(cc2F)c(=O)c(C(=O)O)cn3C2CC2)CC1)Nc1nc2ccc(Cl)cc2s1    4
CCn1cc(C(=O)O)c(=O)c2cc(F)c(N3CCN(CC(=O)Nc4nc5ccc([N+](=O)[O-])cc5s4)CC3)cc21    15
CCn1cc(C(=O)O)c(=O)c2cc(F)c(N3CCN(CC(=O)Nc4nc5ccc(Cl)cc5s4)CC3)cc21    2
CCn1cc(C(=O)O)c(=O)c2cc(F)c(N3CCN(CC(=O)Nc4nc5ccc(F)cc5s4)CC3)cc21    65
O=C(CN1CCN(c2cc3c(cc2F)c(=O)c(C(=O)O)cn3C2CC2)CC1)Nc1nc2ccc([N+](=O)[O-])cc2s1    25

Then this molecule:
Req: Look up MIC of COc1c(N2CCN(CC(=O)Nc3nc4ccc(Cl)c(Cl)c4s3)C(C)C2)c(F)cc2c(=O)c(C(=O)O)cn(C3CC3)c12 (configuration not stated) and report it.
Resp: 25

* * *

# Test system: A549
# experiment.notes: Growth inhibition of human A549 cells at 10 uM incubated for 48 hrs by MTT assay relative to control
# Type: functional
# assay.context: A549, 48 h, read-out: GI
Hi there, I'd appreciate the recorded inhibition of growth at 10 µM for every entry that follows.
Phrase the answer as number then unit, nothing more needed.

Here are 2 compounds together with their reported answers.
CCN(CC)Cc1cn(-c2cc3c(cc2F)c(=O)c(C(=O)NO)cn3C2CC2)nn1    40%
CCCN(CCC)Cc1cn(-c2cc3c(cc2F)c(=O)c(C(=O)NO)cn3C2CC2)nn1    20%

Lab note: each compound below needs its inhibition of growth at 10 µM filled in.
1. CC(C)NCc1cn(-c2cc3c(cc2F)c(=O)c(C(=O)NO)cn3C2CC2)nn1
2. O=C(NO)c1cn(C2CC2)c2cc(-n3cc(CN4CCOCC4)nn3)c(F)cc2c1=O
3. CN(C)Cc1cn(-c2cc3c(cc2F)c(=O)c(C(=O)NO)cn3C2CC2)nn1
4. O=C(NO)c1cn(C2CC2)c2cc(-n3cc(CN4CCCCC4)nn3)c(F)cc2c1=O

Resp:
1: 35%; 2: 15%; 3: 30%; 4: 10%

* * *

Hi there, I'd appreciate the recorded MIC for every entry that follows.
# System: Escherichia coli
# experiment.notes: Antimicrobial activity against Escherichia coli ATCC 700603 incubated for 16 hrs by CLSI-based agar dilution method
# Assay type: functional
# assay.context: ATCC 700603, 16 h

Lab note: each molecule below needs its MIC filled in.
1. CCn1cc(C(=O)O)c(=O)c2cc(F)c(N3CCN(CC(O)Cn4cc([N+](=O)[O-])nc4Cl)CC3)nc21 (stereo not drawn)
2. O=C(O)c1cn(CCF)c2c(F)c(N3CCN(CC(O)Cn4cc([N+](=O)[O-])nc4Cl)CC3)c(F)cc2c1=O (stereo not drawn)
3. CCn1cc(C(=O)O)c(=O)c2cc(F)c(N3CCN(CC(O)Cn4cc([N+](=O)[O-])nc4Cl)CC3)c(OC)c21 (stereo not drawn)

Resp:
1: > 32 µg/mL; 2: > 32 µg/mL; 3: > 32 µg/mL
